Molecular target: T1, mouse tissue factor pathway inhibitor (TFPI) (mouse, UniProt O54819 29-289, limits assumed)
T1 construct: bought; also called mTFPI; murine TFPI
T1 sequence (looked up): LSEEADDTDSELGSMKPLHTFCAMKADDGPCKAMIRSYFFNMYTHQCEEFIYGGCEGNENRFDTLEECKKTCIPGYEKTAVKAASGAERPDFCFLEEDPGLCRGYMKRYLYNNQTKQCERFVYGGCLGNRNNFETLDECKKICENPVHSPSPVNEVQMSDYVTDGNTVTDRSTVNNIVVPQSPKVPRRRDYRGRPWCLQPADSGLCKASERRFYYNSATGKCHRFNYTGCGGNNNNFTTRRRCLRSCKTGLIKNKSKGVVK
Assay: competitive ELISA

{"binder": "2A8 HC Q1E+R30S+S35D+S55R+S56G+K99L/LC D1S+I2Y+A13S+S21T+R28P+N29K+Y48F+N51V+E80M+D91W (Fab, V domains shown) VH: EVQLVESGGGLVQPGGSLRLSCAASGFTFSSYGMDWVRQAPGKGLEWVSSIRGSRGSTYYADSVKGRFTISRDNSKNTLYLQMNSLRAEDTAVYYCARLYRYWFDYWGQGTLVTVSS VL: SYELTQPPSVSVSPGQTARITCSGDNLPKYYAHWYQQKPGQAPVVVIFYDVNRPSGIPERFSGSNSGNTATLTISGTQAMDEADYYCQSWWDGVPVFGGGTKLTVLG", "endpointUnit": "ratio", "variant/HC_K99L": 15.5}
{"binder": "2A8 HC S31V+S35D+S55R/LC Y48F+N51V+D91L+V96W (Fab, V domains shown) VH: QVQLVESGGGLVQPGGSLRLSCAASGFTFRVYGMDWVRQAPGKGLEWVSSIRGSRSSTYYADSVKGRFTISRDNSKNTLYLQMNSLRAEDTAVYYCARKYRYWFDYWGQGTLVTVSS VL: DIELTQPPSVSVAPGQTARISCSGDNLRNYYAHWYQQKPGQAPVVVIFYDVNRPSGIPERFSGSNSGNTATLTISGTQAEDEADYYCQSWLDGVPWFGGGTKLTVLG", "endpointUnit": "ratio", "variant/HC_K99L": 8.2}
{"binder": "2A8 HC S35D+I51E+S55R+K99L/LC Y48F+N51V+D91L+V96W (Fab, V domains shown) VH: QVQLVESGGGLVQPGGSLRLSCAASGFTFRSYGMDWVRQAPGKGLEWVSSERGSRSSTYYADSVKGRFTISRDNSKNTLYLQMNSLRAEDTAVYYCARLYRYWFDYWGQGTLVTVSS VL: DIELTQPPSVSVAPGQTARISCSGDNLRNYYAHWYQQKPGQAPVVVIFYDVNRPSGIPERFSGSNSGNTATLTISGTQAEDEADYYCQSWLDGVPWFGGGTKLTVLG", "endpointUnit": "ratio", "variant/HC_K99L": 8}
{"binder": "2A8 HC S35D+S55R+K99L/LC Y48F+N51V+E80M+D91W (Fab, V domains shown) VH: QVQLVESGGGLVQPGGSLRLSCAASGFTFRSYGMDWVRQAPGKGLEWVSSIRGSRSSTYYADSVKGRFTISRDNSKNTLYLQMNSLRAEDTAVYYCARLYRYWFDYWGQGTLVTVSS VL: DIELTQPPSVSVAPGQTARISCSGDNLRNYYAHWYQQKPGQAPVVVIFYDVNRPSGIPERFSGSNSGNTATLTISGTQAMDEADYYCQSWWDGVPVFGGGTKLTVLG", "endpointUnit": "ratio", "variant/HC_K99L": 21.2}
{"binder": "2A8-143 (HC S35D+S55R+K99L/LC Y48F+N51V+D91L+V96W) (Fab, V domains shown) VH: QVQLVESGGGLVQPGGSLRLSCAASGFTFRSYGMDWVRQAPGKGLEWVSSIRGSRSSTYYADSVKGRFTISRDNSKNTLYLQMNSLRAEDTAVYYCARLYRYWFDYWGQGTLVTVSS VL: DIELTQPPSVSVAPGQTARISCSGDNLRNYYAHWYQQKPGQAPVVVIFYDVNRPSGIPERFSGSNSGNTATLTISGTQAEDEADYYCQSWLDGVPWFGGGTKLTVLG", "endpointUnit": "ratio", "variant/HC_K99L": 13.4}
{"binder": "2A8-g200 (HC Q1E+R30S+S35D+S55R+S56G+K99L/LC D1S+I2Y+A13S+S21T+R28P+N29K+Y48F+N51V+E80M+S89A+D91W+D92S+G93S+V94T) (Fab, V domains shown) VH: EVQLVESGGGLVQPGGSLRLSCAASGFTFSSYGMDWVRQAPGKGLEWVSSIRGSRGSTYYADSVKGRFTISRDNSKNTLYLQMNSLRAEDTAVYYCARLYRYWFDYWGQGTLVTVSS VL: SYELTQPPSVSVSPGQTARITCSGDNLPKYYAHWYQQKPGQAPVVVIFYDVNRPSGIPERFSGSNSGNTATLTISGTQAMDEADYYCQAWWSSTPVFGGGTKLTVLG", "endpointUnit": "ratio", "variant/HC_K99L": 13.3}
{"binder": "2A8 HC S31V+I51D+S55R+K99L/LC Y48F+N52G+D91L+V96W (Fab, V domains shown) VH: QVQLVESGGGLVQPGGSLRLSCAASGFTFRVYGMSWVRQAPGKGLEWVSSDRGSRSSTYYADSVKGRFTISRDNSKNTLYLQMNSLRAEDTAVYYCARLYRYWFDYWGQGTLVTVSS VL: DIELTQPPSVSVAPGQTARISCSGDNLRNYYAHWYQQKPGQAPVVVIFYDNGRPSGIPERFSGSNSGNTATLTISGTQAEDEADYYCQSWLDGVPWFGGGTKLTVLG", "endpointUnit": "ratio", "variant/HC_K99L": 0.1}
